Target: Pantothenate synthetase (Mycobacterium tuberculosis (strain ATCC 25618 / H37Rv)) (UniProt P9WIL5)
Sequence (P9WIL5 whole entry, looked up): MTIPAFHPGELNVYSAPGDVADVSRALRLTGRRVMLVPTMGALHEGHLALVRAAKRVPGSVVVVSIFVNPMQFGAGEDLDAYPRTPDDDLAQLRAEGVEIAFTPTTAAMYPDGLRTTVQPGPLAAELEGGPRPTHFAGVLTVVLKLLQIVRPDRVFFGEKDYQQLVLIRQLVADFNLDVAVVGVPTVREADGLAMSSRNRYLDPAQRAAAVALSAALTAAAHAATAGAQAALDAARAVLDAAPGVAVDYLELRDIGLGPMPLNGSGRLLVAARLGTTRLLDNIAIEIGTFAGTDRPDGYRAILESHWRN
Assay: Coupled enzyme confirmation of inhibitors against recombinant Mtb PanC (AID 375);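 on inhibition: 0% = full reaction with vehicle and 100% = no enzyme background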
Conditions: coupled enzyme assay; at 10 µM, stronger effect = higher value
Some compounds, each annotated with its measured inhibition.
Reply with just the number (in %).

Known results for compounds:
compound	inhibition, %
O=C(CSc1nc(-c2ccc(F)cc2)cs1)N1CCOCC1	0
CCOc1ccc(-n2cc(C(=O)N3CCN(C)CC3)c3cc(OC)c(OC)cc3c2=O)cc1	0
COC(=O)c1ccccc1NC(=O)CSc1nnnn1C1CCCCC1	6

# input for lookup
Which inhibition reading was recorded for the compound COc1ccc(N2CCN(c3oc(COc4ccccc4Cl)nc3C#N)CC2)cc1 ? 0

###

Some molecules, each annotated with its measured Her2 level.
Target: Receptor tyrosine-protein kinase erbB-2 (Homo sapiens)
Assay: Her2 expression decrease, cell viability multiplex – SKBR3 breast tumor cells, AlphaScreen, ATP viability, primary screen (AID 461);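 further: lower value means less Her2 protein in the cells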
Settings: 18-24 h, at 10 µM, stronger effect = lower value
Reply with just the number (in %).

molecule	target or system	Her2 level, %
c1ccc(C2CC3CC(c4ccco4)N2O3)cc1 (stereo not given)	Receptor tyrosine-protein kinase erbB-2 (Homo sapiens)	89.5

Query Her2 level on Receptor tyrosine-protein kinase erbB-2 (Homo sapiens) for C=CCn1c(O)c(C(C)=NCc2cccnc2)c(=O)[nH]c1=O 113

Query Her2 level on Receptor tyrosine-protein kinase erbB-2 (Homo sapiens) for Cc1ccccc1NC1=NCCCS1 101

Query Her2 level on Receptor tyrosine-protein kinase erbB-2 (Homo sapiens) for Cc1ccc(CS(=O)(=O)CCC(=O)N2CCC3(CC2)OCCO3)cc1 118

###

Target: Pantothenate synthetase (Mycobacterium tuberculosis (strain ATCC 25618 / H37Rv))
Assay: Coupled enzyme confirmation of inhibitors against recombinant Mtb PanC (AID 375)
Conditions: coupled enzyme assay
Activity calls are given as the source filed them. The rule behind the calls is not given here.
Use one of these outcomes when replying: Yes for active, No for inactive

molecule	category label
Cc1ccc(Cn2ccc(NC(=O)c3cc(-c4ccc(F)cc4)on3)n2)cc1	No
Cc1cc(NC(=O)c2cc(-c3cccs3)on2)nn1Cc1ccc(Cl)cc1	No
Cc1ccccc1Cn1cc(NC(=O)c2noc3c2CC(C(C)(C)C)CC3)cn1 (stereo unspecified)	Yes

Outcome? COc1ccccc1-c1cc(C(=O)Nc2cc(C)n(Cc3ccc(Cl)cc3)n2)no1 No

Outcome? Cc1ccc(Cn2ccc(NC(=O)c3cc(-c4ccco4)on3)n2)cc1 No

###

Some molecules, each annotated with its measured viability.
Assay: MRP1 drug-resistance reversers in H69AR cells – cell-based, doxorubicin co-treatment, pilot screen (AID 601)
Conditions: H69AR cells, CellTiter-Glo, 72 h; compound alone cytotoxicity; at 10 µM
Reply with just the number (in %).

Known results for molecules:
molecule	reading unit	viability
Oc1ccc(C2NCc3ccccc3-n3cccc32)cc1Cl (stereo unspecified)	%	83.8
C[C@@]1(CO)[C@H](O)CC[C@@]2(C)[C@H]1CC[C@H]1C[C@@H]3C[C@@]12CC[C@]3(O)CO	%	80.6
CC(=NCCCO)c1c(O)n(Cc2ccccc2)c(=O)[nH]c1=O	%	94.4
CC1CCN2c3nc4ccccn4c(=O)c3CC3(C(=O)N(C)C(=O)N(C)C3=O)C2C1 (stereo unspecified)	%	93.5
Cc1ccnc(-n2c(-c3ccco3)nc3ccccc3c2=O)c1	%	99.8
Cc1ccc(C)c(NC(=O)CSc2nnc([C@@H](N)Cc3c[nH]c4ccccc34)o2)c1	%	106
N#Cc1ccccc1Cn1cc(C(=O)c2ccco2)c2ccccc21	%	82
O=c1[nH]c2ccccc2n1C1CCN(CCCC(c2ccc(F)cc2)c2ccc(F)cc2)CC1	%	1.16
CN1CCC(N(C)c2ncnc3ccc(Br)cc23)CC1	%	87.9
CN1CCN(c2c[nH]c(=O)[nH]c2=O)CC1	%	96.7

Which viability reading was recorded for the molecule O=C(CCCOc1ccc(Cl)cc1Cl)N1CCC2(CC1)OCCO2 ? 92.5

###

Target: Receptor tyrosine-protein kinase erbB-2 (Homo sapiens) (UniProt P04626)
Sequence (P04626 whole entry, looked up): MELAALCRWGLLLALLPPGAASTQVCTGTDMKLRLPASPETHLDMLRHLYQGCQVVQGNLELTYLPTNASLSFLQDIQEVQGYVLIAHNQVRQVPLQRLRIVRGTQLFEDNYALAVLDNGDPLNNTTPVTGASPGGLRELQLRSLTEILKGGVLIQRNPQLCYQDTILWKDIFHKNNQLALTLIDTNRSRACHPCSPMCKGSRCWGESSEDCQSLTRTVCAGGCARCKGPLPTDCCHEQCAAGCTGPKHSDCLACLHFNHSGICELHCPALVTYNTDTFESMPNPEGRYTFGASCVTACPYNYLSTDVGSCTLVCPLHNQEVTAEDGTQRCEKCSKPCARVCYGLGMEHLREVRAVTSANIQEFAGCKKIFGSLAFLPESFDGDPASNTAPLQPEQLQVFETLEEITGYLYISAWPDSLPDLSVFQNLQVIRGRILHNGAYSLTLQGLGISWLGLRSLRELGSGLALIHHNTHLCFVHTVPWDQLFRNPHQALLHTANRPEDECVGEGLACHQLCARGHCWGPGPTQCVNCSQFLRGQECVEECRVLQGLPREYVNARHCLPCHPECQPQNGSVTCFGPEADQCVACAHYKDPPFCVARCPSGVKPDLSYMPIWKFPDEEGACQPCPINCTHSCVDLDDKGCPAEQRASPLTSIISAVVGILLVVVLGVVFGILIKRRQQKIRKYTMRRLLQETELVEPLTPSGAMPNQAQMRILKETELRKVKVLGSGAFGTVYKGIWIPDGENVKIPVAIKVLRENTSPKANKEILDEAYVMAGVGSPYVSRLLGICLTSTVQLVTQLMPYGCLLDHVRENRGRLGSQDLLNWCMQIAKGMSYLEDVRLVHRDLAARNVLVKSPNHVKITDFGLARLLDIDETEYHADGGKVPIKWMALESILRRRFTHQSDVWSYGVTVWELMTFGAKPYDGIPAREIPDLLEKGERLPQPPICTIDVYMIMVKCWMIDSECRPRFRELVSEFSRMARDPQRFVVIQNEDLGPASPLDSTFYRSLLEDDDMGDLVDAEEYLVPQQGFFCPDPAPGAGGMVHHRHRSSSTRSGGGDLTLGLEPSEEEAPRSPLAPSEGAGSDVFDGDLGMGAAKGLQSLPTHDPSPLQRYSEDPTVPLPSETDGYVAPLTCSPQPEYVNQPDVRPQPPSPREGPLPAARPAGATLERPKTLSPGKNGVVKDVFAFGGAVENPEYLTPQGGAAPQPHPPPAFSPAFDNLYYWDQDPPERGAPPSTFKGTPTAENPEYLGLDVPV
Test: Her2 expression decrease, cell viability multiplex – SKBR3 breast tumor cells, AlphaScreen, ATP viability, primary screen (AID 461);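 further: lower value means less Her2 protein in the cells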
Conditions: 18-24 h, at 10 µM
The source made the active and inactive calls.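 How the source made its calls: active means Her2 level under about 52% in both replicate screens, with viability over 70% of control (limit read from the data); inconclusive means Her2 under the limit in one screen only, or viability under 70%; inactive means Her2 level above the set limit.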
Use one of these outcomes when replying: active, inactive

Sample answers from the record:
compound	target or system	category label
CC(C)C(=O)c1cn(Cc2ccccc2C#N)c2ccccc12	Receptor tyrosine-protein kinase erbB-2 (Homo sapiens) (UniProt P04626)	inactive
CCOc1ccc(C2SCC(=O)Nc3c2c(=O)[nH]n3C2CCCCCC2)cc1 (stereo unspecified)	Receptor tyrosine-protein kinase erbB-2 (Homo sapiens) (UniProt P04626)	inactive
COC(=O)c1cncn1C(C)c1ccccc1 (stereo unspecified)	Receptor tyrosine-protein kinase erbB-2 (Homo sapiens) (UniProt P04626)	inactive
CN1CCC(OC(=O)C2c3ccccc3Oc3ccccc32)CC1	Receptor tyrosine-protein kinase erbB-2 (Homo sapiens) (UniProt P04626)	inactive
CCCCn1c(C)c(C(=O)OCC)c2c(CN3CCOCC3)c(O)ccc21	Receptor tyrosine-protein kinase erbB-2 (Homo sapiens) (UniProt P04626)	inactive
O=C(O)C1(c2ccc(Cl)cc2)CCC1	Receptor tyrosine-protein kinase erbB-2 (Homo sapiens) (UniProt P04626)	inactive

Outcome? Cn1c(C(=O)N2CCC3(CC2)OCCO3)cc2c(=O)n(C)c3ccccc3c21 inactive

Outcome? CC1CCN2c3nc4ccccn4c(=O)c3CC3(C(=O)N(C)C(=O)N(C)C3=O)C2C1 (stereo unspecified) inactive

Outcome? N#Cc1ccccc1Cn1cc(C(=O)c2ccco2)c2ccccc21 inactive

Outcome? COc1ccc(CN2CCN(c3ccccc3F)CC2)c(OC)c1 inactive

Outcome? COc1ccc(S(=O)(=O)NC(CC(=O)N2CCC3(CC2)OCCO3)c2ccco2)cc1 (stereo unspecified) inactive

Outcome? CC1=C(C(=O)N2CCC3(CC2)OCCO3)C2(CCC(C)CC2)OC1=O (stereo unspecified) inactive

Outcome? CCCCCCOc1ccc(CN2CCN(C)CC2)cc1 inactive

Outcome? CC(=NCCCO)c1c(O)n(Cc2ccccc2)c(=O)[nH]c1=O inactive

Outcome? CC1=C(C(=O)OC(C)C)[C@]2(C(=O)N(CC(N)=O)c3ccccc32)C(C#N)=C(N)O1 inactive

Outcome? O=C1C2CCCN2C(c2ccc(Cl)c(Cl)c2)N1c1ccccn1 (stereo unspecified) inactive

Outcome? CN(C)c1cc(N)c2c(n1)CCC2 (tested in a mixture with another compound) inactive

Outcome? COc1ccccc1/C=C1/C(=N/O)C2CCN1CC2 inactive

Outcome? Cc1cc(C)c(C(=O)CN2CCOCC2)c(C)c1 inactive

Outcome? CCCC(C)C1C(C#N)=C(N)Oc2c1c(=O)oc1ccccc21 (stereo unspecified) inactive

Outcome? CCCCCCn1c(O)c(C=NC2CCN(Cc3ccccc3)CC2)c(=O)[nH]c1=O inactive

Outcome? COc1ccc(CCNC(=O)c2c(N)n(CCN3CCOCC3)c3nc4ccccc4nc23)cc1 inactive

Outcome? Cc1ccc(C)c(C2(O)CC(C)N(C)CC2C)c1 (stereo unspecified) inactive

Outcome? O=C(NCc1ccccn1)c1ccccc1Cl inactive

Outcome? Cn1c(O)c(C=NCc2ccco2)c(=O)n(C)c1=O inactive

Outcome? CCN1CCN(C(=O)COc2cc(=O)n(CC)c3ccccc23)CC1 inactive

Outcome? Nc1ccccc1C(=O)OC1CSC1 inactive

Outcome? COC(=NC1CCCC1)C(O)c1c[nH]c2ccccc12 (stereo unspecified) inactive

###

Some molecules, each annotated with its measured inhibition.
Molecular target: Pantothenate synthetase (Mycobacterium tuberculosis (strain ATCC 25618 / H37Rv))
Experiment: Coupled enzyme confirmation of inhibitors against recombinant Mtb PanC (AID 375);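 on inhibition: 0% = full reaction with vehicle and 100% = no enzyme background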
Conditions: coupled enzyme assay; at 10 µM, stronger effect = higher value
Activity calls are given as the source filed them. No rule for the calls is given here.

Known results for molecules:
molecule	reading
CCOc1ccc(NC(=O)C2CC(=O)N(C(C)C)C2)cc1 (configuration not stated)	2% (inactive)
CC(NC(=O)c1ccccc1NC(=O)c1ccco1)C(=O)O (configuration not stated)	0% (inactive)
CC(=O)C1=C(O)C(=O)N(Cc2ccco2)C1c1ccc(F)cc1 (configuration not stated)	10% (inactive)
CCCCNc1cc(C(=O)O)cc(S(N)(=O)=O)c1Oc1ccccc1	3% (inactive)
CC(=O)Nc1cccc(NC(=O)CSc2nn3c(=O)c(C)nnc3s2)c1	2% (inactive)
CCOC(=O)C1CCN(Cc2c(O)ccc3ccccc23)CC1	1% (inactive)
C/C=C(\C)c1nnc(NC(=O)OCC)s1	0% (inactive)
O=C(NCC1CCCO1)c1ccc(C(=O)NCC2CCCO2)cc1 (configuration not stated)	0% (inactive)

Which inhibition reading was recorded for the molecule Cc1ccc2nc(C3CCN(CC(=O)N4CCCCCC4)CC3)[nH]c2c1 ? 0% (inactive)

Which inhibition reading was recorded for the molecule COc1ccc(S(=O)(=O)N2CCOCC2)cc1C(=O)Nc1cc(C)on1 ? 0% (inactive)

Which inhibition reading was recorded for the molecule CC(=O)Nc1ccccc1OCc1nnc(-c2cccs2)o1 ? 0% (inactive)

Which inhibition reading was recorded for the molecule O=c1oc2ccccc2cc1NCc1ccccc1O ? 0% (inactive)

The reported numbers originate from PubChem BioAssay.
